Biological target: aromatase (Homo sapiens, UniProt P11511)
Sequence (P11511 1-503): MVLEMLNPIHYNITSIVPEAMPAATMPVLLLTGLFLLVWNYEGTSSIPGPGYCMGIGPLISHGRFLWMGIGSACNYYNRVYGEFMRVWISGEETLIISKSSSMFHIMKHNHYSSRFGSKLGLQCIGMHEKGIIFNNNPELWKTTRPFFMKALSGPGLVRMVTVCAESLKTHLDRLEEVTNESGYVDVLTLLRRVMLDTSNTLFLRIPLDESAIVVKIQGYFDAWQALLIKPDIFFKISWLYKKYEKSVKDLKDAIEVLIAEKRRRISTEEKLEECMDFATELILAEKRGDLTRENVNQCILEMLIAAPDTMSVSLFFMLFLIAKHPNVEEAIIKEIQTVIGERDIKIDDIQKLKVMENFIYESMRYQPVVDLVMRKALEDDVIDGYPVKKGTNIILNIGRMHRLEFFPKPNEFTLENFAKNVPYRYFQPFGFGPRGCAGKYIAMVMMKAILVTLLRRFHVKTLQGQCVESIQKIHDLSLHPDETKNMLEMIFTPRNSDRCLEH
Experiment: Aromatase inhibition in placental microsomes, tritiated water release assay
quantity_kind: % Inhibition of aromatase activity in placental microsomes at 10 μM

[[record]]
compound = "COc1ccc(-c2coc3cc(OS(N)(=O)=O)cc(O)c3c2=O)cc1"
recorded_measurement = "* (*Inactive)"

[[record]]
compound = "NS(=O)(=O)Oc1ccc(-c2coc3cc(OS(N)(=O)=O)cc(O)c3c2=O)cc1"
recorded_measurement = "* (*Inactive)"

[[record]]
compound = "NS(=O)(=O)Oc1ccc(C2COc3cc(OS(N)(=O)=O)ccc3C2)cc1 (racemic) [Compound 22, (±) Isoflavane-7,4′-O,O-bisulphamate]"
recorded_measurement = "13%"

[[record]]
compound = "NS(=O)(=O)Oc1ccc(-c2coc3cc(OS(N)(=O)=O)ccc3c2=O)cc1 [Compound 19, Isoflavone-4′,7-O,O-bisulphamate]"
recorded_measurement = "* (*Inactive)"

[[record]]
compound = "NS(=O)(=O)Oc1ccc(-c2coc3cc(O)cc(O)c3c2=O)cc1 [Compound 18, 5,7-Dihydroxy isoflavone-4′-O-sulphamate]"
recorded_measurement = "* (*Inactive)"

